Parameter % 629 mAb Bindng: see the listing below.
Tested on: anti-CR2 SCR1-2 mAb 629
ASSAY OVERVIEW: MBP-CR2 SCR1-2-629 mAb ELISA
Assay type: binding
CONDITION SET: mutant MBP-CR2 SCR1-2 relative to wild-type; plate-bound 629 mAb
REPORTED ENDPOINT: % 629 mAb Bindng (%)

[
  {
    "MOLECULE": "R89A: single-site mutant of recombinant MBP-CR2 SCR1-2 (protein, left off: large carriers; small tags and cut ends) ISCGSPPPILNGRISYYSTPIAVGTVIRYSCSGTFRLIGEKSLLCITKDKVDGTWDKPAPKCEYFNKYSSCPEPIVPGGYKIRGSTPYAHGDSVTFACKTNFSMNGNKSVWCQANNMWGPTRLPTCVSVFPLE",
    "UNITS OF MEASURE": "%",
    "TEST RESULT": 87.7
  },
  {
    "MOLECULE": "S15P: single-site mutant of recombinant MBP-CR2 SCR1-2 (protein, left off: large carriers; small tags and cut ends) ISCGSPPPILNGRIPYYSTPIAVGTVIRYSCSGTFRLIGEKSLLCITKDKVDGTWDKPAPKCEYFNKYSSCPEPIVPGGYKIRGSTPYRHGDSVTFACKTNFSMNGNKSVWCQANNMWGPTRLPTCVSVFPLE",
    "UNITS OF MEASURE": "%",
    "TEST RESULT": 91.7
  },
  {
    "MOLECULE": "Y64A: single-site mutant of recombinant MBP-CR2 SCR1-2 (protein, left off: large carriers; small tags and cut ends) ISCGSPPPILNGRISYYSTPIAVGTVIRYSCSGTFRLIGEKSLLCITKDKVDGTWDKPAPKCEAFNKYSSCPEPIVPGGYKIRGSTPYRHGDSVTFACKTNFSMNGNKSVWCQANNMWGPTRLPTCVSVFPLE",
    "UNITS OF MEASURE": "%",
    "TEST RESULT": 82.0
  }
]

meta.source: patent US20120108492A1
